Tested on: Histophilus somni
ASSAY_SUMMARY: minimum inhibitory concentration (MIC)
CONDITION_DESCRIPTION: isolate (source animal id): 281
ENDPOINT: minimum inhibitory concentration

# MOLECULE, VALUE_MEASURED
rows = [
    ("CCN1CCN(c2cc3c(cc2F)c(=O)c(C(=O)O)cn3C2CC2)CC1 [Enrofloxacin]", "≤ 0.12 µg/mL"),
    ("NC[C@@H]1O[C@H](O[C@H]2[C@@H](O)[C@H](O[C@@H]3[C@@H](O)[C@H](N)C[C@H](N)[C@H]3O[C@H]3O[C@H](CN)[C@@H](O)[C@H](O)[C@H]3N)O[C@@H]2CO)[C@H](N)[C@@H](O)[C@@H]1O [Neomycin]", "> 32 µg/mL"),
    ("CC1(C)S[C@@H]2[C@H](NC(=O)Cc3ccccc3)C(=O)N2[C@H]1C(=O)O [Penicillin]", "≤ 0.12 µg/mL"),
]

Could you now consider this next molecule?
Data request: Looking for the measured minimum inhibitory concentration of CC[C@H]1OC(=O)C[C@@H](O)[C@H](C)[C@@H](O[C@@H]2O[C@H](C)[C@@H](O)[C@H](N(C)C)[C@H]2O)[C@@H](CCN2CCCCC2)C[C@@H](C)C(=O)/C=C/C(C)=C/[C@@H]1CN1CCCCC1 [Tildipirosin] , can you help?
Data returned: 4 µg/mL

====

Tested on: Enterococcus spp.
ASSAY_SUMMARY: minimum inhibitory concentration (MIC)
CONDITION_DESCRIPTION: isolate (source animal id): 79
In this section, each of the molecules is paired with its reported minimum inhibitory concentration.
Please respond with the number in µg/mL and leave the unit unwritten.

Worked examples, 2 molecules total:
# SUBSTANCE_SMILES, minimum inhibitory concentration (µg/mL)
data = [
    ("CCN1CCN(c2cc3c(cc2F)c(=O)c(C(=O)O)cn3C2CC2)CC1", 1),
    ("CC1(C)S[C@@H]2[C@H](NC(=O)[C@H](N)c3ccccc3)C(=O)N2[C@H]1C(=O)O", 1),
]

Data request: Looking for the measured minimum inhibitory concentration of CS(=O)(=O)c1ccc([C@@H](O)[C@@H](CF)NC(=O)C(Cl)Cl)cc1 , can you help?
Data returned: 4

Data request: Can you handle CCC[C@@H]1C[C@@H](C(=O)N[C@@H]([C@H]2O[C@H](SC)[C@H](O)[C@@H](O)[C@H]2O)[C@H](C)Cl)N(C)C1 next?
Data returned: 16

Data request: Can you handle CO/N=C(\C(=O)N[C@@H]1C(=O)N2C(C(=O)O)=C(CSC(=O)c3ccco3)CS[C@H]12)c1csc(N)n1 next?
Data returned: 4

====

In this section, each of the compounds is paired with its reported minimum inhibitory concentration.
Test system: Enterococcus spp.
ASSAY_SUMMARY: minimum inhibitory concentration (MIC)
CONDITION_DESCRIPTION: isolate (source animal id): 296
Please respond with the number in µg/mL and leave the unit unwritten.

Data request: Looking for the measured minimum inhibitory concentration of CCC[C@@H]1C[C@@H](C(=O)N[C@@H]([C@H]2O[C@H](SC)[C@H](O)[C@@H](O)[C@H]2O)[C@H](C)Cl)N(C)C1 , can you help?
Data returned: 16

Data request: Can you handle CC[C@H]1OC(=O)C[C@@H](O)[C@H](C)[C@@H](O[C@@H]2O[C@H](C)[C@@H](O)[C@H](N(C)C)[C@H]2O)[C@@H](CCN2CCCCC2)C[C@@H](C)C(=O)/C=C/C(C)=C/[C@@H]1CN1CCCCC1 next?
Data returned: 16

Data request: Can you handle CC1(C)S[C@@H]2[C@H](NC(=O)Cc3ccccc3)C(=O)N2[C@H]1C(=O)O next?
Data returned: 0.5

Data origin, for the record: the supplement of paper PMC8612539
